System: RET(V804M)
Conditions: Compound Concentration (nM):1000;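 also: KINOMEscan scanMAX binding as percent activity remaining versus control; lower means stronger binding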
Classify: Yes when Percent Control is strictly less than 80%; No when Percent Control is not.

{"columns": ["compound", "class"],
 "data": [
  ["CCS(=O)(=O)c1ccc(OC)c(Nc2ncc(-c3cccc(OC)c3)o2)c1 [GW580509X]", "Yes"],
  ["Cl.O=S1CCN(Cc2ccc(-c3ccc4ncnc(Nc5ccc(OCc6ccccc6)c(F)c5)c4c3)o2)CC1 [GW576924A]", "No"],
  ["COc1ccccc1-c1cc(/C=C2\\C(=O)Nc3ncc(Br)cc32)cc(Br)c1O [GW442130X]", "No"],
  ["C[C@@H](Oc1cc(-n2cnc3ccc(OC4CCN(C)CC4)cc32)sc1C(N)=O)c1ccccc1Cl [GSK579289A]", "No"],
  ["COc1cc(C)c(N(C)C(=O)CN(C)C)cc1Nc1nc(Nc2cccc(F)c2C(N)=O)c2cc[nH]c2n1", "Yes"],
  ["COc1cc(N2CCN(C(C)C)CC2)ccc1Nc1nc(Nc2ccc(F)cc2C(=O)NC[C@@H](O)CO)c2cc[nH]c2n1 [GSK1392956A]", "No"],
  ["CCn1c(-c2nonc2N)nc2c(C#CC(C)(C)O)nc(OCCNC)cc21.Cl", "No"],
  ["O=C(Nc1n[nH]c2nc(-c3ccc(O)cc3)c(Br)cc12)C1CC1", "No"],
  ["Cl.O=C(O[C@H]1CN[C@H](C#Cc2cc3ncnc(Nc4ccc5c(cnn5Cc5ccccc5)c4)c3s2)C1)N1CCOCC1 [GSK200398A]", "No"],
  ["NS(=O)(=O)c1ccc(N/N=C2\\C(=O)Nc3ccc(Cl)cc32)cc1 [GW280670X]", "No"],
  ["Cl.O=C(Nc1ccc(Oc2ccc3[nH]c(NC(=O)c4ccccc4)nc3c2)cc1)Nc1cc(C(F)(F)F)ccc1F [GW709042A]", "Yes"],
  ["Cc1cc(O)cc(C)c1/C=C/c1cncc(C(N)=O)c1 [GW435821X]", "No"],
  ["COc1ccc2[nH]c3c4[nH]c5ccc(OC)cc5c4c4c(c3c2c1)C(=O)NC4=O [GW296115X]", "Yes"],
  ["COc1ccc2c(-c3ccnc(Nc4cccc(OC(F)(F)F)c4)n3)cnn2n1 [GW810372X]", "No"],
  ["CN1CCN(C(=O)c2ccc(NC(=O)Nc3ccc(N(C)c4ccnc(Nc5ccc(CS(C)(=O)=O)cc5)n4)cc3)cc2)CC1.Cl [GW830263A]", "Yes"],
  ["COC(=O)Nc1nc2ccc(Oc3ccc(NC(=O)Nc4cc(C(F)(F)F)ccc4F)cc3)cc2s1.Cl [GW693917A]", "Yes"],
  ["Cl.O=C(Nc1ccc(Oc2ccc3[nH]c(NC(=O)c4ccco4)nc3c2)cc1)Nc1cc(C(F)(F)F)ccc1F [GW683134A]", "Yes"],
  ["COc1cc(/C=N/Nc2ncnc3[nH]ncc23)ccc1O [GW578748X]", "Yes"],
  ["NS(=O)(=O)c1ccc(N/N=C2\\C(=O)Nc3ccc(-c4cnco4)cc32)cc1", "No"],
  ["NS(=O)(=O)c1ccc(N/N=C2\\C(=O)Nc3ccc(C(=O)NCCc4c[nH]cn4)cc32)cc1 [GW300660X]", "No"],
  ["COc1cc(C=NNc2ncnc3c2cnn3-c2ccccc2)ccc1O [GW513184X]", "No"],
  ["COc1cc2ncn(-c3cc(O[C@H](C)c4ccccc4Cl)c(C(N)=O)s3)c2cc1OC [GSK237701A]", "Yes"],
  ["COc1cccc(-c2c[nH]c3c(N/N=C/c4ccncc4)ncnc23)c1 [GW814408X]", "No"],
  ["O=C1Nc2ccc(C(=O)c3ccco3)cc2C1=Cc1cc(Cl)c(O)c(Cl)c1 [GW406108X]", "Yes"],
  ["CCS(=O)(=O)c1ccc(OC)c(Nc2ncc(-c3cccc(F)c3)o2)c1 [GW621970X]", "No"],
  ["CN(C)c1cc2c(Nc3ccc4c(cnn4Cc4ccccc4)c3)ncnc2cn1 [GW282974X]", "No"]
]}

* * *

Quick list: Percent Control per entry.
Tested on: AMPK-alpha2
Construct: gene PRKAA2
Conditions: Compound Concentration (nM):1000

{"columns": ["compound", "system under test", "output unit", "Percent Control"],
 "data": [
  ["Cl.O=C(Nc1ccc(Oc2ccc3[nH]c(NC(=O)c4ccccc4)nc3c2)cc1)Nc1cc(C(F)(F)F)ccc1F [GW709042A]", "AMPK-alpha2", "%", 100],
  ["CN1CCN(C(=O)c2ccc(NC(=O)Nc3ccc(N(C)c4ccnc(Nc5ccc(CS(C)(=O)=O)cc5)n4)cc3)cc2)CC1.Cl [GW830263A]", "AMPK-alpha2", "%", 87],
  ["CC(C)COC(=O)c1ccc2c(c1)/C(=C/Nc1ccc(S(N)(=O)=O)cc1)C(=O)N2 [GW416981X]", "AMPK-alpha2", "%", 92],
  ["COc1cccc(-c2c[nH]c3c(N/N=C/c4ccncc4)ncnc23)c1 [GW814408X]", "AMPK-alpha2", "%", 85],
  ["COc1ccc2cc(-c3c(-c4ccncc4)nc(-c4ccc(S(C)(=O)=O)cc4C)n3C)ccc2c1", "AMPK-alpha2", "%", 90],
  ["COc1ccc2[nH]c3c4[nH]c5ccc(OC)cc5c4c4c(c3c2c1)C(=O)NC4=O [GW296115X]", "AMPK-alpha2", "%", 54],
  ["NS(=O)(=O)c1ccc(N/N=C2\\C(=O)Nc3ccc(-c4cnco4)cc32)cc1", "AMPK-alpha2", "%", 100],
  ["COc1cc(/C=N/Nc2ncnc3[nH]ncc23)ccc1O [GW578748X]", "AMPK-alpha2", "%", 54],
  ["CCS(=O)(=O)c1ccc(OC)c(Nc2ncc(-c3cccc(F)c3)o2)c1 [GW621970X]", "AMPK-alpha2", "%", 91],
  ["CC1=C(C(=O)Nc2ccc3[nH]ncc3c2)C(c2ccc(Cl)c(Cl)c2)CC(=O)N1 (stereo not shown) [GSK299115A]", "AMPK-alpha2", "%", 97],
  ["Cl.O=C(O[C@H]1CN[C@H](C#Cc2cc3ncnc(Nc4ccc5c(cnn5Cc5ccccc5)c4)c3s2)C1)N1CCOCC1 [GSK200398A]", "AMPK-alpha2", "%", 92],
  ["Cc1cc(O)cc(C)c1/C=C/c1cncc(C(N)=O)c1 [GW435821X]", "AMPK-alpha2", "%", 83],
  ["C[C@@H](Oc1cc(-n2cnc3ccc(OC4CCN(C)CC4)cc32)sc1C(N)=O)c1ccccc1Cl [GSK579289A]", "AMPK-alpha2", "%", 100],
  ["Cl.O=S1CCN(Cc2ccc(-c3ccc4ncnc(Nc5ccc(OCc6ccccc6)c(F)c5)c4c3)o2)CC1 [GW576924A]", "AMPK-alpha2", "%", 100],
  ["CC1=C(C(=O)Nc2ccc3[nH]ncc3c2)C(c2ccc3ccccc3c2)CC(=O)N1 (stereo not shown) [GSK270822A]", "AMPK-alpha2", "%", 81],
  ["CCS(=O)(=O)c1ccc(OC)c(Nc2ncc(-c3cccc(OC)c3)o2)c1 [GW580509X]", "AMPK-alpha2", "%", 100]
]}

* * *

Quick list: Percent Control per entry.
System: KIT(D816H)
Conditions: Compound Concentration (nM):1000

{"columns": ["molecule", "output unit", "Percent Control"],
 "data": [
  ["COc1cc(C=NNc2ncnc3c2cnn3-c2ccccc2)ccc1O [GW513184X]", "%", 84],
  ["Cl.O=C(O[C@H]1CN[C@H](C#Cc2cc3ncnc(Nc4ccc5c(cnn5Cc5ccccc5)c4)c3s2)C1)N1CCOCC1 [GSK200398A]", "%", 69],
  ["CCn1c(-c2nonc2N)nc2c(C#CC(C)(C)O)nc(OCCNC)cc21.Cl", "%", 22],
  ["COc1ccc(COc2ccc(Cc3cnc(N)nc3N)cc2OC)cc1 [GW632580X]", "%", 68],
  ["Nc1ncnc2occ(-c3ccc(NC(=O)Nc4cc(C(F)(F)F)ccc4F)cc3)c12 [GW770249X]", "%", 32],
  ["Cc1cc(O)cc(C)c1/C=C/c1cncc(C(N)=O)c1 [GW435821X]", "%", 65],
  ["CC1=C(C(=O)Nc2ccc3[nH]ncc3c2)C(c2ccc3ccccc3c2)CC(=O)N1 (stereo not shown) [GSK270822A]", "%", 70]
]}

* * *

Test system: ABL1(Q252H)-nonphosphorylated
Settings: Compound Concentration (nM):1000

{"columns": ["molecule", "output unit", "Percent Control"],
 "data": [
  ["C[C@@H](Oc1cc(-n2cnc3ccc(OC4CCN(C)CC4)cc32)sc1C(N)=O)c1ccccc1Cl [GSK579289A]", "%", 46],
  ["COc1cc(C=NNc2ncnc3c2cnn3-c2ccccc2)ccc1O [GW513184X]", "%", 8.4],
  ["NS(=O)(=O)c1ccc(N/N=C2\\C(=O)Nc3ccc(Cl)cc32)cc1 [GW280670X]", "%", 81],
  ["COc1cccc(-c2c[nH]c3c(N/N=C/c4ccncc4)ncnc23)c1 [GW814408X]", "%", 0],
  ["Cl.O=S1CCN(Cc2ccc(-c3ccc4ncnc(Nc5ccc(OCc6ccccc6)c(F)c5)c4c3)o2)CC1 [GW576924A]", "%", 100],
  ["Nc1ncnc2occ(-c3ccc(NC(=O)Nc4cc(C(F)(F)F)ccc4F)cc3)c12 [GW770249X]", "%", 0],
  ["COc1cc(C)c(N(C)C(=O)CN(C)C)cc1Nc1nc(Nc2cccc(F)c2C(N)=O)c2cc[nH]c2n1", "%", 62],
  ["COc1ccccc1-c1cc(/C=C2\\C(=O)Nc3ncc(Br)cc32)cc(Br)c1O [GW442130X]", "%", 94],
  ["CCS(=O)(=O)c1ccc(OC)c(Nc2ncc(-c3cccc(F)c3)o2)c1 [GW621970X]", "%", 4.5],
  ["NS(=O)(=O)c1ccc(Nc2ncc(-c3ccccc3)o2)cc1 [GW572399X]", "%", 78],
  ["CN1CCN(C(=O)c2ccc(NC(=O)Nc3ccc(N(C)c4ccnc(Nc5ccc(CS(C)(=O)=O)cc5)n4)cc3)cc2)CC1.Cl [GW830263A]", "%", 6.1],
  ["Cl.O=C(Nc1ccc(Oc2ccc3[nH]c(NC(=O)c4ccco4)nc3c2)cc1)Nc1cc(C(F)(F)F)ccc1F [GW683134A]", "%", 5.5],
  ["CCS(=O)(=O)c1ccc(OC)c(Nc2ncc(-c3cccc(OC)c3)o2)c1 [GW580509X]", "%", 6.8],
  ["COc1ccc2[nH]c3c4[nH]c5ccc(OC)cc5c4c4c(c3c2c1)C(=O)NC4=O [GW296115X]", "%", 28],
  ["NS(=O)(=O)c1ccc(N/N=C2\\C(=O)Nc3ccc(C(=O)NCc4ccncc4)cc32)cc1 [GW300657X]", "%", 78],
  ["COc1cc(/C=N/Nc2ncnc3[nH]ncc23)ccc1O [GW578748X]", "%", 0],
  ["COc1ccc(COc2ccc(Cc3cnc(N)nc3N)cc2OC)cc1 [GW632580X]", "%", 88],
  ["CN(C)CCNC(=O)Nc1ccc(N(C)c2ccnc(Nc3ccc(CS(C)(=O)=O)cc3)n2)cc1.Cl [GW830900A]", "%", 47],
  ["O=C1Nc2ccc(C(=O)c3ccco3)cc2C1=Cc1cc(Cl)c(O)c(Cl)c1 [GW406108X]", "%", 71],
  ["O=C(Nc1n[nH]c2nc(-c3ccc(O)cc3)c(Br)cc12)C1CC1", "%", 7],
  ["Cl.O=C(O[C@H]1CN[C@H](C#Cc2cc3ncnc(Nc4ccc5c(cnn5Cc5ccccc5)c4)c3s2)C1)N1CCOCC1 [GSK200398A]", "%", 84],
  ["COC(=O)Nc1nc2ccc(Oc3ccc(NC(=O)Nc4cc(C(F)(F)F)ccc4F)cc3)cc2s1.Cl [GW693917A]", "%", 0],
  ["COc1cc(N2CCN(C(C)C)CC2)ccc1Nc1nc(Nc2ccc(F)cc2C(=O)NC[C@@H](O)CO)c2cc[nH]c2n1 [GSK1392956A]", "%", 100],
  ["CC(C)COC(=O)c1ccc2c(c1)/C(=C/Nc1ccc(S(N)(=O)=O)cc1)C(=O)N2 [GW416981X]", "%", 95],
  ["Cl.c1ccc(Cc2nc3ccc(Nc4ncnc5ccccc45)cc3[nH]2)cc1 [GR269666A]", "%", 98],
  ["CC1=C(C(=O)Nc2ccc3[nH]ncc3c2)C(c2ccc3ccccc3c2)CC(=O)N1 (stereo not shown) [GSK270822A]", "%", 50],
  ["COc1ccc2cc(-c3c(-c4ccncc4)nc(-c4ccc(S(C)(=O)=O)cc4C)n3C)ccc2c1", "%", 63],
  ["COc1cc2ncnc(Nc3ccc4c(cnn4Cc4ccccc4)c3)c2cc1OC.Cl [GW282449A]", "%", 96]
]}
